Test: differential killing of epithelial or mesenchymal cells, primary screen, imaging, PC-3E GFP, TEM4-18 mCherry, co-culture (AID 1345086);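 also: cells exposed to compound for 72 h before imaging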
Settings: imaging cell counts, measured here: epithelial PC-3E GFP cell survival, at 1 µM
compounds and their reported normalised cell number

INSERT INTO measurements (compound, obs_value) VALUES
  ('CC(=O)Oc1ccc2c(c1)CCC1C2CC[C@]2(C)C(=O)CCC12 (stereo partly drawn)', 1.27),
  ('CC/C=C\[C@H](O)[C@H](O)C1=C(C)C(=O)[C@]2(O1)C(=O)N[C@@](OC)(C(=O)c1ccccc1)[C@@H]2O', 0.79);

Continue with the compound presented below.
Measured normalised cell number of CC(C)[C@H](N)C(=O)OCC(CO)OCn1cnc2c(=O)[nH]c(N)nc21 (stereo partly drawn) : 1.28

###

Target: L-lactate dehydrogenase (Plasmodium falciparum (isolate CDC / Honduras))
Assay: PfLDH activity inhibition – cell lysate, 3D7 strain, counter-screen for P. falciparum growth inhibition project (AID 2304);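 also: 0% = vehicle and 100% = reference inhibitor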
Details: P. falciparum 3D7 crude extract, LDH APAD/NBT absorbance; at 2 µM; stronger effect = higher value
This section presents compounds with their documented inhibition values.
Please respond with the number in % and leave the unit unwritten.

INSERT INTO results (compound, property_name, obs_value) VALUES
  ('CCOC(=O)c1ccc(NC(=O)Nc2cccc(-c3cccc(-c4nc5ccc(F)cc5[nH]4)c3)c2)cc1', 'inhibition', 6),
  ('c1ccc2c3c([nH]c2c1)C(c1ccc2c(c1)CCO2)N(c1ncnc(N2CCN(CCCN4CCOCC4)CC2)n1)CC3 (configuration not stated)', 'inhibition', -2);

Summary for this compound, `CC(=O)CCc1ccc(OCCN(Cc2ccccc2C(F)(F)F)c2ccc(C#N)c(C(F)(F)F)c2)cc1` : inhibition is 0

Query `COc1cc(-c2nc(-c3ccccc3)c(-c3ccccc3)[nH]2)cc(OC)c1O` yields inhibition of -2

Looking up `CCc1cc(-c2n[nH]c(C(F)(F)F)c2-c2ccccc2)c(O)cc1OC` , I found its inhibition recorded as 1

In plain terms, `COc1cccc(Cn2ccc3c4c(N)nc(N)nc4ccc32)c1` has a documented inhibition of -2

So, `CCOc1ccccc1C(=O)Nc1cccc(-c2nc3ncccn3c2C)c1` ? Its inhibition was -6

The recorded inhibition for `CN(c1ccc(NC(=O)Nc2cc(C(F)(F)F)ccc2F)cc1)c1ccnc(NCCN2CCOCC2)n1` is -2

Lab note: measured inhibition of `CC(C)Sc1nc2c(c(=O)n1Cc1ccco1)C1(CCCCC1)Cc1ccccc1-2` was 0

Record summary for `CNCCNCc1ccc(-c2ccc(-c3nc4ccc(C(F)(F)F)cc4[nH]3)cc2)cc1` : reported inhibition = 1

# compound `O=C(NCCCCN1CCN(c2nsc3ccccc23)CC1)c1ccccc1C(=O)NCCCCN1CCN(c2nsc3ccccc23)CC1` ; its inhibition = -8

Record `O=C(NCc1cccc2ccccc12)c1ccc(CNC2CCN(Cc3ccccc3)CC2)cc1` , field inhibition: 5

###

Reported inhibition values for a set of compounds
System: Hepatitis C virus NS3 helicase
Test: HCV NS3 helicase inhibitors, primary screen, biochemical, fluorescence polarization, NIH Clinical Collection (AID 743270)
Settings: NS3 helicase binding to Cy5-dT15 DNA, stronger effect = higher value, concentration not given here
Write the value in % as a bare number.

INSERT INTO assay_data (compound, property_name, uom, obs_value) VALUES
  ('CNC(=O)Oc1ccc2c(c1)[C@]1(C)CCN(C)C1N2C (some centres undefined)', 'inhibition', '%', 5.94),
  ('CC(=O)N1CCN(c2ccc(OC[C@H]3CO[C@](Cn4ccnc4)(c4ccc(Cl)cc4Cl)O3)cc2)CC1', 'inhibition', '%', 4.36),
  ('CC(C)NCC(O)c1ccc(NS(C)(=O)=O)cc1 (centres undefined)', 'inhibition', '%', 1.19);

Could you now consider this next compound?
Test item `O=c1cnn([C@@H]2O[C@H](CO)[C@@H](O)[C@H]2O)c(=O)[nH]1` ; Hepatitis C virus NS3 helicase; reported inhibition was -2.84

###

Experiment: HepG2 cytotoxicity, primary screen, cytotoxicity control for P. falciparum antimalarial project, cell-based, ATP luminescence (AID 2303);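 also: 0% = DMSO wells and 100% = digitonin-killed cells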
Conditions: HepG2 viability, 24-48 h, at 10 µM
Active and inactive are the calls of the source.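 Rule for the calls: active = inhibition above 50%; inactive = the rest.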
Pick one: 1 (yes) = active, 0 (no) = inactive

Past entries and their recorded results:
INSERT INTO measurements (compound, label_value) VALUES
  ('CCn1c(-c2nonc2N)nc2c(-c3cccc(NC(=O)Nc4cccc(Cl)c4)c3)ncc(OCCCN)c21', '0 (no)'),
  ('CCc1cc2c(Sc3nc4ccccc4[nH]3)ncnc2s1', '0 (no)'),
  ('CS(=O)(=O)CCNCc1nc(-c2ccc3c(Nc4ccc(F)c(O)c4)ccnc3c2)cs1', '0 (no)'),
  ('O=C(Cc1cc(F)cc(F)c1)NC1CCN(c2ccnc3cc(Cl)ccc23)C1 (stereo not drawn)', '0 (no)'),
  ('CCN1CCc2c1cc(C(=O)N[C@@H](Cc1ccccc1)[C@H](O)CNC(C)(C)c1cccc(C(F)(F)F)c1)cc2N1CCCCS1(=O)=O', '0 (no)'),
  ('CCCCCCn1c(Sc2ccc(C#N)c([N+](=O)[O-])c2)nnc1-c1ccccc1', '0 (no)');

Fill in: this test's call for `Cc1cc(NC(=O)c2ccsc2)ccc1OC1CCN(Cc2ccc(F)cc2)CC1` is ___
0 (no)

For O=C(CC1CCCC1)N(Cc1ccc(-c2ccc(CNC3Cc4ccccc4C3)cc2)cc1)CC1CCCCN1 (stereo not drawn) , what call appears in the results of this test?
0 (no)

###

Target: Single-stranded DNA-binding protein (Escherichia coli (strain K12))
Experiment: E. coli SSB displacement from DNA, counter-screen for HCV NS3 helicase inhibitor project, biochemical, fluorescence polarization, NIH Clinical Collection (AID 743271)
Conditions: stronger effect = higher value, concentration not given here
Property Name: inhibition (%)
Lab book: enter the figure in %, no units written.

# example entries with known answers
INSERT INTO results (structure_string, uom, obs_value) VALUES
  ('Nc1nc(Cl)nc2c1ncn2[C@H]1C[C@H](O)[C@@H](CO)O1', '%', -3.54),
  ('O=C1c2c(O)cc(O)cc2O[C@H](c2ccc(O)c(O)c2)[C@H]1O', '%', -1.64);

Now examine the next entry.
GET /value?item= `CC(=O)NC[C@H]1CN(c2ccc(N3CCOCC3)c(F)c2)C(=O)O1` &field=inhibition returns 2.21

###

Assay: Cy5 fluorescence interference with SSB-bound oligo, artefact control for HCV NS3 helicase inhibitor project, biochemical, NIH Clinical Collection, E. coli SSB (AID 743268)
Property Name: fluorescence ratio
Write no unit; give the number alone.

INSERT INTO results (molecule, obs_value) VALUES
  ('O=c1cnn([C@@H]2O[C@H](CO)[C@@H](O)[C@H]2O)c(=O)[nH]1', 0.94),
  ('NC(=O)c1ncn(C2OC(CO)C(O)C2O)n1 (centres undefined)', 1.01),
  ('CN(C)S(=O)(=O)c1ccc2c(c1)/C(=C\CCN1CCNCC1)c1ccccc1S2', 1.07);

We now examine a further molecule.
So for `COc1cc(CNC(=O)CCCC/C=C\C(C)C)ccc1O` , the logged fluorescence ratio turned out to be 0.95

###

# growth inhibition values compiled below
Assay: inhibition of 3D7 malaria parasite growth – strain 3D7 (AID 2306);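 also: 0% = DMSO wells and 100% = chloroquine plus artemisinin control wells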
Details: P. falciparum 3D7 erythrocytic growth, LDH absorbance, 72 h; at 2 µM; stronger effect = higher value
Unit % implied. Number only.

INSERT INTO assay_data (compound, obs_value) VALUES
  ('COc1ccc(C(=O)N2CCC3(CC2)C(=O)N(CC(=O)NCC2CCCCC2)CN3c2ccccc2)c(OC)c1', 100),
  ('CC1CCC(C[C@@H](C(=O)N[C@H](C(=O)Nc2nccs2)[C@@H](C)O)[C@H](CCC(F)(F)F)N(O)C=O)CC1 (some centres undefined)', 95),
  ('COc1ccc(-c2cnc(N)nc2N)cc1Cl', 84),
  ('CN(C)CCN(C)Cc1ccc(-c2ccc3c(Nc4ccc(Cl)cc4F)ccnc3c2)o1', 100),
  ('CS(=O)(=O)Cc1ccc(Nc2nccc(-c3c(-c4cccc(C(=O)Nc5c(F)cccc5F)c4)nn4ccccc34)n2)cc1', 96);

According to the records, this compound `O=C(Nc1ccc(-c2nc3ccccc3[nH]2)cc1)c1cccc(S(=O)(=O)N2CCCC2)c1` displays growth inhibition of 100

Record `O=C(O)c1cccnc1Sc1ccc(Cl)cc1` , field growth inhibition: 100

GET /value?item= `Cc1cccc(Nc2nc(N[C@@H]3CCCNC3)nc3cc[nH]c(=O)c23)c1` &field=growth inhibition returns 99

The value of growth inhibition measured for the compound `Cc1noc(C)c1-c1cccc(CNCc2ccc(-c3cccc(-c4nc5ccc(C(F)(F)F)cc5[nH]4)c3)cc2)c1` turned out to be 101
